tested on: RPMI-8226; test: NCI tumour cell line growth inhibition, 48 h
Activity calls are given as the source filed them. No stated cut-off is given here; in the data, active = GI50 up to about 1.1 µM and inactive = higher.
Outcomes: 1 (active), 0 (inactive)

molecule	target.or.system	class
CCCCCNC(=O)OC1CCn2c1nc1c2C(=O)C(C)=C(N2CC2)C1=O (stereo unspecified)	RPMI-8226	0
CC(C)c1cc(C(C)C)c(S(=O)(=O)N=[N+]=[N-])c(C(C)C)c1	RPMI-8226	0
c1ccc(-c2[nH]c(-c3ccccc3)c(-c3cnccn3)c2-c2cnccn2)cc1	RPMI-8226	0
CC1=C(C(=O)Nc2ccc([N+](=O)[O-])cc2)C(c2ccc(N(C)C)cc2)C(C(=O)Nc2ccc([N+](=O)[O-])cc2)=C(C)N1	RPMI-8226	0
CCc1cc(-c2nsc(=O)o2)c(S(=O)(=O)CC)s1	RPMI-8226	0
O=c1[nH]c(=O)n(CCOc2ccccc2)cc1Nc1ccccc1	RPMI-8226	0
Cc1ncc2c(=O)c3c(oc2n1)c1ccccc1n3Cc1ccccc1	RPMI-8226	0
Cc1cc(S(=O)(=O)[N-]/C(=N/S(=O)(=O)c2ccc(Cl)cc2)[n+]2ccc(N(C)C)cc2)c(SCC(=O)O)cc1Cl	RPMI-8226	0
N=C(N)NS(=O)(=O)c1ccc(Nc2c3ccccc3nc3c(C(=O)Nc4ccc(S(N)(=O)=O)cc4)ccc(Cl)c23)cc1	RPMI-8226	0
CC(=O)C1(O)CC2(c3ccccc3)C(=O)C1(c1ccccc1)C(c1ccccc1)=C2c1ccccc1 (stereo unspecified)	RPMI-8226	0
Cc1ccc(S(=O)(=O)N/N=C2\C=CC3(CC2)C(=O)N(I)c2ccccc23)cc1 (stereo unspecified)	RPMI-8226	0
CCN(CC)CCN(/C(=N/c1ccccc1)N1CCCCC1)c1ccccc1	RPMI-8226	0
CN(C)Cc1ccc(-c2cc3onc(-c4ccccc4)c3c(=O)n2C)cc1	RPMI-8226	0
C=C1CC(C)(COc2cc(=O)oc3ccccc23)OC1=O (stereo unspecified)	RPMI-8226	1
Cc1cc(C)n(CN(CCCCO)Cn2nc(C)cc2C)n1	RPMI-8226	0
C=C1C(=O)OC2C1C(OC(=O)/C(C)=C/C)CC1(C)C(=O)CCC(=C)C21 (stereo unspecified)	RPMI-8226	0
CC1=NNC(=O)C1C1CC(c2c[nH]c3ccccc23)=NN(c2ccccc2)C1=O (stereo unspecified)	RPMI-8226	0
OCc1cc2ccncc2c2c1[nH]c1ccccc12	RPMI-8226	0
O=C1C=CC(=O)c2c1ccc1c3ccccc3n(CCCCCCCCn3c4ccccc4c4ccc5c(c43)C(=O)C=CC5=O)c21	RPMI-8226	0
O=S(=O)(CC1=NC2C=CC=CC2N=C1)NCc1ccccc1 (stereo unspecified)	RPMI-8226	0
Cl/C(=C\C=N\c1ccc(I)cc1)c1ccc2ccccc2c1	RPMI-8226	0
O=C1Nc2ccccc2/C1=C1\C(=O)Nc2ccccc21	RPMI-8226	0
CC(C)(CC#N)c1cc(CC(C)(C)c2cc(CC(C)(C)c3cc(C(C)(C)C4(C)OCCO4)no3)no2)no1	RPMI-8226	0
CC(C)(C)c1cc[n+](C[n+]2ccc(C(C)(C)C)cc2)cc1	RPMI-8226	0
COc1ccc(OC)c(/C(C)=N/NC(N)=S)c1	RPMI-8226	0
Nc1ccc(S2(c3ccc(N)cc3)C=C(c3ccccc3)C(c3ccccc3)=C2)cc1	RPMI-8226	0
C/C(=N\NC(=S)N(C)C)c1nc2cccnc2[nH]1	RPMI-8226	0
CCOC(=O)c1cn2c(n1)sc1c(Cl)c(Cl)ccc12	RPMI-8226	0
N#CC(NNC(=O)Cc1ccccc1)c1cccc(O)c1 (stereo unspecified)	RPMI-8226	0
O=C1C=CC(=O)N1c1ccc2c(c1)Cc1cc(NC(=O)C(F)(F)F)ccc1-2	RPMI-8226	0
N#Cc1c(-c2ccc(Cl)cc2)c2c(n(C3OC(CO)C(O)C(O)C3O)c1=S)CCC2 (stereo unspecified)	RPMI-8226	0
CC(C)C1CC[C@@H](C)C[C@@]1(O)CC(N)=O (stereo partly specified)	RPMI-8226	0
CC(=O)Nc1ccc(C2CC(c3ccc([N+](=O)[O-])cc3)=Nc3ccccc3[S+]2[O-])cc1 (stereo unspecified)	RPMI-8226	0
Cc1cc(C)cc(Nc2cc(O)nc(O)n2)c1	RPMI-8226	0
COc1cc(C2c3[nH]c4ccccc4c3[C@@H](Nc3ccc(C#N)cc3)[C@H]3COC(=O)N23)cc(OC)c1O (stereo partly specified)	RPMI-8226	1
COC(=O)C1=C(C(=O)OC)c2cc(OC)ccc2C(C(=S)N(C)C)S1 (stereo unspecified)	RPMI-8226	0
